Each record here notes measured protein stability index.
Experiment: protein stability index of a GFP-peptide fusion (yeast GPS) (PSI 1-4); higher = more stable; sorted into four equal gates, so the index is relative within each strain
Details: ubr1∆
I only need the number, thanks.

# sequenceRecord, readoutType, dataValue
data = [
    ("DAKTSYPNEVLKFNHGN [REC8]", "protein stability index", 2.95),
    ("PGPYPNEQAARAANQGA [CYT1]", "protein stability index", 2.3),
    ("VISIVGGHSLEEISFSL [PRP28]", "protein stability index", 3.18),
    ("LVEEKTPGLTFNAIDLA [RPC82]", "protein stability index", 3.27),
    ("IMELPGVYSDDELLSQL [SRP68]", "protein stability index", 3.05),
    ("ALREMRKSDQQDVLKGS [POP1]", "protein stability index", 3.22),
    ("NDLEVGVATKDKFFTLS [SCL1]", "protein stability index", 2.89),
    ("QVRKKQIETINFLRLPA [YDL116W/NUP84]", "protein stability index", 2.81),
    ("ELYSFQQLVDSEKRLDH [SNF12]", "protein stability index", 1.57),
    ("NALEHKYFTESDIPVSE [SSN3]", "protein stability index", 2.94),
]

Summary for this sequence, FFNGKALNNAIPGGPKF [PRP8] : protein stability index is 2.94

Per the record, GKPHFSLLGGFDENIAR [PCI8] has protein stability index of 2.96

The sequence listed as QLKIQNRQAAASVVPSA [RPL12A] has a reported protein stability index of 2.08

Record ALLRVTKSKNKTLIGLQ [POP4] . Reported protein stability index: 2.47

Recorded result, WNRLTISVTDTEVERAK [COR1] , protein stability index: 3.21

The value of protein stability index measured for the sequence LKYYQDLKNTRMKSITS [SNF5] turned out to be 2.98

protein stability index in this record for RAEALNISGEFFRNKLK [RPL16B] : 2.9

----------
Here, each record is paired with measured protein stability index data.
Assay: protein stability index of a GFP-peptide fusion (yeast GPS) (PSI 1-4); higher = more stable; sorted into four equal gates, so the index is relative within each strain
Conditions: pdr5∆
# answer = number (no unit)

Sample records with protein stability index:
# sequenceRecord, dataValue
records = [
    ("NKVHETSSKSSSLSAII [YDL088C/ASM4]", 2.83),
    ("RTWYESFCGFLLYYIPS [YJR042W/NUP85]", 1.43),
]

The sequence listed as PNISHSNIDYQTLLANS [SNF2] shows protein stability index equal to 2.7

The sequence identified as TESNELIQKLQNSANNN [IRR1] registered its protein stability index at 3.02

Form field protein stability index, entry EYIELEYRDLYTNSVEL [YMR129W/POM152] : 3.28

For record KRKPAKSSSNRSCVSNS [RPN4] the listed protein stability index is 3.01

Quick note, protein stability index for GVQSNGDQFLRYVNLLG [PRE4] landed at 2.51

Value of measured protein stability index for the entry PFFARFKLRIQTTEGYD [RPB11] : 1.37

# protein stability index of VRRGNRKRPVPKGATYG [RPL15A] = 3.27

SPMINSTSSGKVSYAVK [SNM1] yielded protein stability index of 3.11

Recorded protein stability index (sequence LLESYKTLSLKSMASAF [RPN7] ): 2.31

Query PLKTELEANGRSLEKVN [SSN2] yields protein stability index of 3.34

SENEDTKDLLSKSPSEW [CSE2] has a reported protein stability index of 3.11

Per the record, QVMEEKLDENNAQLSCI [PUP2] has protein stability index of 2.69
